system: TTK; conditions: concentration: 1 μM, replicates: in singlicate; n = 1
Reported %Inh is given for each of the following compounds.
EXPERIMENTAL READOUT: %Inh (%)

INSERT INTO assay_data (compound, experimental_readout, unit_descriptor, value_measured) VALUES
  ('O=C(Nc1n[nH]c2nc(-c3ccco3)c(Br)cc12)C1CCN(Cc2ccccc2)C1.O=C(O)[C@H](O)[C@@H](O)C(=O)O (centres unmarked) [SB-742034]', '%Inh', '%', 4),
  ('CCn1c(-c2ccccc2)nc2cnccc21 [SB-733416]', '%Inh', '%', 0),
  ('Cc1nccc(-c2c(-c3ccc(F)cc3)ncn2CCCN2CCOCC2)n1.Cl [SB-282975]', '%Inh', '%', 0),
  ('Cc1c(Cn2c3ccccc3n3c(=O)cc(N4CCOCC4)nc23)cccc1C(F)(F)F [GSK2306394]', '%Inh', '%', 27),
  ('Fc1ccc(-c2nn3cccc(F)c3c2-c2ccncc2)cc1 [GW475620]', '%Inh', '%', 14);

====

Measured Kd (MYLK2)
EXPERIMENTAL READOUT: Kd (nM)

INSERT INTO results (entry_smiles, study_system, value_measured) VALUES
  ('O=C(Nc1n[nH]c2cc(-c3ccsc3)ccc12)C1CC1', 'MYLK2', 41),
  ('Nc1cccc(-c2ccc3c(N)n[nH]c3c2)n1', 'MYLK2', 180),
  ('O=C(Nc1n[nH]c2nc(-c3cccs3)c(Br)cc12)C1CC1', 'MYLK2', 8.4),
  ('O=C(Nc1n[nH]c2nc(-c3cccs3)c(Br)cc12)C1CCCC1', 'MYLK2', 26);

====

tested on: CSNK1G3; details: concentration: 1 μM, replicates: in singlicate; n = 1
Sorting guide: entries reporting %Inh beneath 20% go in the YES pile, the rest go in the NO pile.

INSERT INTO results (molecule, answer_label) VALUES
  ('Cc1ccc(NC(=O)c2ccc(Cl)cc2)cc1-c1ccc(C(=O)Nc2ccncc2)cc1', 'NO'),
  ('CNC(=O)c1ccc(C)c(-n2c(C)cc(OCc3ccc(F)cc3F)c(Br)c2=O)c1', 'NO'),
  ('Cc1cnc(N)c(/C=C/c2cncc(C(=O)NCCc3ccc(Cl)cc3Cl)c2)c1.Cl', 'YES'),
  ('Fc1ccc(-c2nc[nH]c2-c2ccncc2)cc1', 'YES'),
  ('Cc1ccc(NC(=O)Nc2ccccc2F)cc1-c1ccc(C(=O)Nc2ccncc2)cc1', 'NO'),
  ('COC(=O)c1cccc(NC(=O)NC2CCN(c3ccnc(Nc4ccc(OC)cc4)n3)C2)c1 (centres unmarked)', 'NO'),
  ('COc1ccc(CSc2nnc(-c3ccc4ncsc4c3)o2)cc1C(F)(F)F', 'YES'),
  ('Cc1cccc2c(-c3ccncn3)c(-c3ccc(F)cc3)nn12', 'NO'),
  ('O=C1NC(=O)C(c2ccc(Cl)cc2)=C1Nc1ccc(O)cc1', 'NO'),
  ('COC(=O)c1cccc(NC(=O)NC2CCN(c3ccnc(Nc4ccc(F)cc4)n3)C2)c1 (centres unmarked)', 'YES'),
  ('CC(=O)c1cccc(NC(=O)NC2CCN(c3ccnc(Nc4ccc(F)cc4)n3)C2)c1 (centres unmarked)', 'NO'),
  ('CNc1nc(-c2ccc3c(N)n[nH]c3c2)cc(N2C[C@@H](C(=O)Nc3ccccc3)CC[C@H]2C)n1', 'NO'),
  ('CCn1c(-c2ccccc2)nc2cnccc21', 'YES'),
  ('COc1ccc(Nc2nccc(N3CCC(NC(=O)c4cc5ccccc5s4)C3)n2)cc1 (centres unmarked)', 'YES'),
  ('Cl.Cl.Cl.N#Cc1ccc(CCNc2nccc(-c3cccc(CN4CCNCC4)c3)n2)cc1', 'YES'),
  ('Cn1cnc2c(N)ncnc21', 'YES'),
  ('COc1ccc(Nc2nccc(NCCNC(=O)Nc3cc(C)ccc3C)n2)cc1', 'YES'),
  ('COc1ccc(-c2coc3ccc(-c4nnc(C)o4)cc23)cc1', 'YES'),
  ('COC(=O)C(NC(=O)NC1CCN(c2ccnc(Nc3ccc(F)cc3)n2)C1)c1ccccc1 (centres unmarked)', 'NO'),
  ('O=C1NC(=O)C(c2ccc(Cl)cc2)=C1Nc1cccc(Cl)c1', 'NO'),
  ('Nc1ncnc2occ(-c3ccc4c(c3)CCN4C(=O)Cc3cc(F)ccc3F)c12', 'NO'),
  ('COc1ccc(CSc2nnc(-c3ccc4c(c3)CCO4)o2)cc1', 'YES'),
  ('Cc1c(Cn2c(C)c(C)n3c(=O)cc(N4CCOCC4)nc23)cccc1C(F)(F)F', 'NO'),
  ('Cc1ccc(NC(=O)Nc2ccc(Cl)cc2)cc1-c1ccc(C(=O)Nc2ccncc2)cc1', 'NO'),
  ('O=C(Nc1n[nH]c2nc(-c3cccs3)c(Br)cc12)C1CC1', 'YES'),
  ('c1ccc(-c2ccnc3[nH]ccc23)cc1', 'YES'),
  ('CCCCc1nn2ncccc2c1-c1ccnc(NC2CC2)n1', 'NO'),
  ('CNc1cc(-c2ccc3c(N)n[nH]c3c2)nc(N)n1', 'NO'),
  ('COC(=O)C(Cc1ccccc1)NC(=O)NC1CCN(c2ccnc(Nc3ccc(F)cc3)n2)C1 (centres unmarked)', 'YES'),
  ('CN1c2ccc(-c3ccc(C(N)=O)cc3)cc2-c2[nH]ncc2S1(=O)=O', 'YES'),
  ('Cc1ccccc1Cn1ccn2c(=O)cc(N3CCOCC3)nc12', 'NO'),
  ('NS(=O)(=O)c1cccc(N/C=C2\C(=O)Nc3ccc(S(=O)(=O)Cc4c(Cl)cccc4Cl)cc32)c1', 'NO');
